Hi there, I'd appreciate the recorded ΔTm at 100 µM for every entry that follows.
# tested target: PAPD5 (Homo sapiens, UniProt Q8NDF8)
# Construct: made in house
# Sequence (Q8NDF8 68-698 isoform Q8NDF8-5 limits assumed): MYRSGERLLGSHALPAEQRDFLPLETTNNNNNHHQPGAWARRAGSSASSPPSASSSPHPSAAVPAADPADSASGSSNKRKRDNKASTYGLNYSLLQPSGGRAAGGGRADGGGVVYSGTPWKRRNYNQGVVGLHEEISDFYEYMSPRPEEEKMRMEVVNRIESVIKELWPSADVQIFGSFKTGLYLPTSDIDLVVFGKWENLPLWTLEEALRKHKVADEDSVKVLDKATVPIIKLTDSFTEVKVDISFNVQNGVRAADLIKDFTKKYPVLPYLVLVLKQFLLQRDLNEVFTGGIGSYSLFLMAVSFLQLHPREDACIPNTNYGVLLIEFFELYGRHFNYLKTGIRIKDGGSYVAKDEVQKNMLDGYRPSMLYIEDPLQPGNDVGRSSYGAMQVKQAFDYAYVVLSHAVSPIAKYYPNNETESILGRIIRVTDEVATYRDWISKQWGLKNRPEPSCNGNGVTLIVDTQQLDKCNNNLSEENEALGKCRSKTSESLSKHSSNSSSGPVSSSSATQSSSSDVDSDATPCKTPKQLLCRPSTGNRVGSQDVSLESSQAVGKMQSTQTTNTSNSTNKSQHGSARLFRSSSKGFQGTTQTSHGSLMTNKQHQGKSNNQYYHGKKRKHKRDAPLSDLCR
# experiment summary: DSF binding assay (shift in temperature)
# run parameters: shift in temperature at 100 μM of the compound
One number for each entry, in °C.

CC(=O)Nc1cccc(Nc2c(S(=O)(=O)N3CCOCC3)cnc3ccc(Br)cc23)c1C(=O)O [Compound 85A] | 0
O=C(O)c1ccccc1Nc1c(C(=O)N2CCOCC2)cnc2ccc(OC(F)(F)F)cc12 [Compound 13A] | 5.6
COCCCOc1cc2ncc(-c3ncco3)c(Nc3ccccc3C(=O)O)c2cc1OC [Compound 58A] | 8.5
CCOC(=O)c1cnc2ccc(OC(F)(F)F)cc2c1Nc1ccccc1-c1nn[nH]n1 [Compound 10A] | 1
N#Cc1cnc2ccc(OC(F)(F)F)cc2c1Nc1ccccc1C(=O)O [Compound 15A] | 8.8
NS(=O)(=O)c1cnc2ccc(-c3cccc4ncoc34)cc2c1Nc1ccccc1C(=O)O [Compound 64A] | 6.3
CCOC(=O)c1cnc2ccc(OC(F)(F)F)cc2c1Nc1ncccc1C(=O)O | 0.4

Attention now turns to another entry.
Look up and report ΔTm at 100 µM, with PAPD5 (Homo sapiens, UniProt Q8NDF8) as system, for COCCCOc1cc2ncc(C#N)c(Nc3ccccc3C(=O)O)c2cc1OC [Compound 51A]
7.9
